# tgt: Menin (Homo sapiens) (UniProt O00255)
# Sequence (O00255 whole entry, looked up): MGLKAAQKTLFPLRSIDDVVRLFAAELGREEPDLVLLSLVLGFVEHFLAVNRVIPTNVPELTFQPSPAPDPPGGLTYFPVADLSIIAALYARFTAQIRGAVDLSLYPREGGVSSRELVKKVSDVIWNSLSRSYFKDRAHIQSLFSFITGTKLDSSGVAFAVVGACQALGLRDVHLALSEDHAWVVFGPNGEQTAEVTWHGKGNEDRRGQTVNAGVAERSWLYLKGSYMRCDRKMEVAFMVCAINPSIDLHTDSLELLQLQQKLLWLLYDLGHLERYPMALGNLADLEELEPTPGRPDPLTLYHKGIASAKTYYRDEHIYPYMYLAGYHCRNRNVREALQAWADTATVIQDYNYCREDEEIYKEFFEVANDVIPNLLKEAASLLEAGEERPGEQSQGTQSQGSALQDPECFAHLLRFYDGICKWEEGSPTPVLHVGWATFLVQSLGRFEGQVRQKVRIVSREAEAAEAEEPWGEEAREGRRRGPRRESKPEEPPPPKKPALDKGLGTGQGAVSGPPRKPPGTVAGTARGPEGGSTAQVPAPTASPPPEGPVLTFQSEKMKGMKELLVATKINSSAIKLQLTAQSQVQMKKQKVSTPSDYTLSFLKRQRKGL
# protocolDescription: Confirmation of Inhibitors Targeting the Menin-MLL Interaction in MLL Related Leukemias: Confirmation in an HTRF (commercial TR-FRET) Assay using His-tagged menin and biotin-labeled MLL peptide
# experimentalParameters: His-menin / biotin-MLL peptide binding; series mostly up to 126 µM
# Description: qHTS Assay for Inhibitors Targeting the Menin-MLL Interaction in MLL Related Leukemias NIH Chemical Genomics Center [NCGC] NIH Molecular Libraries Probe Centers Network [MLPCN] […] We have developed and optimized a fluorescence polarization-based assay for the identification of Menin-MLL inhibitors. […] The present assay uses an alternate technology to confirm hits from the primary screen - homogeneous time resolved fluorescence (HTRF). […]
Records with an inconclusive call do not appear. Active and inactive are the calls of the source. Calls follow the shape of the dose curve; as a rule, active = well fitted inhibition curve with a large enough effect; inconclusive = small, poorly fitted or top-dose-only effect, or effect the other way; inactive = flat fitted curve, though single readings scatter.
Reply using exactly one outcome from active, inactive

Field: example entries. Status: answers known.
• O=C(CSc1ccc(Cl)cc1)Nc1ccc(NC(=O)c2ccco2)cc1 = inactive
• Cn1ncc2c(N3CCCCC3)nc(NCCCO)nc21 = inactive
• CS(=O)(=O)c1ccc2nc(NC(=O)Nc3cccc(Cl)c3)sc2c1 = active

Shifting focus to the molecule that follows.
Q: Short answer needed: outcome of this test for `CCOC(=O)Cn1c2ccccc2n2nc(CCC(=O)O)c(=O)nc12` ?
A: inactive

---

# tgt: Menin (Homo sapiens) (UniProt O00255)
# protocolDescription: Confirmation of Inhibitors Targeting the Menin-MLL Interaction in MLL Related Leukemias: Confirmation in an HTRF (commercial TR-FRET) Assay using His-tagged menin and biotin-labeled MLL peptide
# experimentalParameters: His-menin / biotin-MLL peptide binding; series mostly up to 126 µM
Inconclusive results are not listed. Calls of active or inactive are those of the source. Calls come from the whole dose curve; as a rule, active = well fitted inhibition curve with a large enough effect; inconclusive = small, poorly fitted or top-dose-only effect, or effect the other way; inactive = flat fitted curve, though single readings scatter.
Reply using exactly one outcome from active, inactive

Field: example entries. Status: answers known.
• Cn1c(=O)[nH]c(=O)c2c1nc(Br)n2CCSc1nc2ccccc2o1 = inactive
• COc1ccc(CCNCc2cc(C)n(-c3ccc(OC)cc3)c2C)cc1 = inactive
• COc1ccccc1NS(=O)(=O)c1cc(N2Cc3ccccc3C2=N)ccc1N1CCOCC1 = active
• CN(C)c1ccc(N=Nc2ccc(C(=O)O)cc2)cc1 = inactive
• NS(=O)(=O)c1ccc(NC(=O)c2ccc(-c3ccccc3)cc2)cc1 = active

Q: Short answer needed: outcome of this test for Cc1nc2oc3c(NCC4CCCO4)ncnc3c2c2c1COC(C)(C)C2 (stereo not drawn) ?
A: inactive

Q: Short answer needed: outcome of this test for `CCOC(=O)CCC(=O)NCc1ccc2c(c1)cc(C)n2C` ?
A: inactive

Q: Short answer needed: outcome of this test for `CCn1cnc2c1c(=O)n(CC(=O)O)c(=O)n2Cc1ccccc1` ?
A: inactive

Q: Short answer needed: outcome of this test for `CCCN(CCC)CCCNC(=S)Nc1ccc2nc(N3CCCC3)cc(C)c2c1` ?
A: inactive

Q: Short answer needed: outcome of this test for `Cc1cc2c(N)cccc2nn1` ?
A: inactive

Q: Short answer needed: outcome of this test for `CC(=O)Nc1ccc(-c2cc(-c3ccc(NC(C)=O)cc3)nc(-c3ccc(NC(C)=O)cc3)n2)cc1` ?
A: active

Q: Short answer needed: outcome of this test for CCOc1ccc(C2Nc3ccc4ccccc4c3-c3c2c(=O)oc2ccccc32)cc1 (stereo not drawn) ?
A: inactive

Q: Short answer needed: outcome of this test for CCCC(c1nnnn1Cc1cccs1)N1CCN(C2CCCC2)CC1 (stereo not drawn) ?
A: inactive

Q: Short answer needed: outcome of this test for `COc1ccccc1/C=C/C(=O)NC(=S)Nc1ccc(S(=O)(=O)N(C)c2ccccc2)cc1` ?
A: inactive

Q: Short answer needed: outcome of this test for `O=C(N/N=C/c1cn(-c2cccs2)nc1-c1ccccc1)c1ccccc1O` ?
A: inactive

Q: Short answer needed: outcome of this test for `CN(C)CCCOc1ccc2c(c1)Sc1ccccc1CC2=O` ?
A: inactive

Q: Short answer needed: outcome of this test for Cc1ccc(F)c(C2C3C=CCC(C)C3C(=O)N2Cc2ccccc2)c1 (stereo not drawn) ?
A: inactive

Q: Short answer needed: outcome of this test for `CCOC(=O)N1CCN(Cc2nnc(-c3ccccc3C)o2)CC1` ?
A: inactive

Q: Short answer needed: outcome of this test for `Cc1cnc(CNc2ccnc(-c3ccoc3)n2)cn1` ?
A: inactive

Q: Short answer needed: outcome of this test for `O=C(O)/C(=C\c1ccc(F)cc1)c1ccc(-c2ccccc2)cc1` ?
A: inactive

---

# tgt: Menin (Homo sapiens)
# protocolDescription: Confirmation of Inhibitors Targeting the Menin-MLL Interaction in MLL Related Leukemias: Confirmation in an HTRF (commercial TR-FRET) Assay using His-tagged menin and biotin-labeled MLL peptide
# experimentalParameters: His-menin / biotin-MLL peptide binding; series mostly up to 126 µM
Results filed as inconclusive are left out. The source made the active and inactive calls. Calls follow the shape of the dose curve; as a rule, active = well fitted inhibition curve with a large enough effect; inconclusive = small, poorly fitted or top-dose-only effect, or effect the other way; inactive = flat fitted curve, though single readings scatter.
Reply using exactly one outcome from class 1 for active, class 0 for inactive

- CC(NC(=O)c1cnc2ccccc2n1)c1ccccc1 (configuration not stated): class 0
- Oc1ccc(Nc2ncnc3c2oc2ccccc23)cc1: class 0
- COC(=O)c1ccccc1NC1=C/C(=N\S(=O)(=O)c2ccc(C(=O)O)cc2)c2ccccc2C1=O: class 0
- NC(=O)c1ccc(NC(=O)c2cncn2-c2ccccc2)cc1: class 0
- O=C(N/N=C/c1cn(-c2ccccc2)nc1-c1cc2ccccc2o1)c1ccccc1Br: class 0

Q: Short answer needed: outcome of this test for `Cc1c(CCOC(=O)CC23CC4CC(CC(C)(C4)C2)C3)sc[n+]1Cc1ccc([N+](=O)[O-])cc1` ?
A: class 0

Q: Short answer needed: outcome of this test for O=[N+]([O-])CC(c1ccccc1)P(=O)(c1ccccc1)c1ccccc1 (configuration not stated) ?
A: class 0

Q: Short answer needed: outcome of this test for CC(c1cc2ccccc2s1)N(O)C(N)=O (configuration not stated) ?
A: class 0

Q: Short answer needed: outcome of this test for `C=C(C)CNC(=S)Nc1cccc2cnccc12` ?
A: class 0

---

# tgt: Menin (Homo sapiens) (UniProt O00255)
# protocolDescription: Confirmation of Inhibitors Targeting the Menin-MLL Interaction in MLL Related Leukemias: Confirmation in an HTRF (commercial TR-FRET) Assay using His-tagged menin and biotin-labeled MLL peptide
# experimentalParameters: His-menin / biotin-MLL peptide binding; series mostly up to 126 µM
Records with an inconclusive call do not appear. The source made the active and inactive calls. Calls follow the shape of the dose curve; as a rule, active = well fitted inhibition curve with a large enough effect; inconclusive = small, poorly fitted or top-dose-only effect, or effect the other way; inactive = flat fitted curve, though single readings scatter.
Reply using exactly one outcome from active, inactive

• CCCn1c(C2CCCN2c2nc(C)cs2)nc2cc(Cl)c(Cl)cc21 (centres undefined) = inactive
• O=C(/C=C/c1ccccc1)c1cccs1 = inactive
• COC(CSc1nc(N)c2c3c(sc2n1)CN(C)CC3)OC = inactive
• COc1cc(SC)ccc1C(=O)Nc1cccc(C2OCCCO2)c1 = inactive
• CCNc1ccccc1CP(=O)(c1ccccc1)c1ccccc1O (centres undefined) = active
• CCOC(=O)N1CCN(C(=O)c2oc3ccc(S(=O)(=O)N(CC)CC)cc3c2C)CC1 = inactive

Q: Short answer needed: outcome of this test for `CCOc1ccccc1N(CC(=O)Nc1ccccc1C(=O)N1CCCC1)S(C)(=O)=O` ?
A: inactive

Q: Short answer needed: outcome of this test for `NC(=O)c1cc2ccccc2o/c1=N/NC(=O)c1cccc(F)c1` ?
A: inactive

Q: Short answer needed: outcome of this test for `O=C(CSc1nc(O)cc(=O)n1-c1ccccc1)c1ccc(Br)cc1` ?
A: inactive

Q: Short answer needed: outcome of this test for COc1ccc(N(CC(=O)NC2CC3CCC2C3)S(=O)(=O)c2ccc(C)cc2)cc1OC (centres undefined) ?
A: inactive

---

# tgt: Menin (Homo sapiens) (UniProt O00255)
# protocolDescription: Confirmation of Inhibitors Targeting the Menin-MLL Interaction in MLL Related Leukemias: Confirmation in an HTRF (commercial TR-FRET) Assay using His-tagged menin and biotin-labeled MLL peptide
# experimentalParameters: His-menin / biotin-MLL peptide binding; series mostly up to 126 µM
Results filed as inconclusive are left out. Activity calls are given as the source filed them. Calls come from the whole dose curve; as a rule, active = well fitted inhibition curve with a large enough effect; inconclusive = small, poorly fitted or top-dose-only effect, or effect the other way; inactive = flat fitted curve, though single readings scatter.
Reply using exactly one outcome from active, inactive

Q: Short answer needed: outcome of this test for `N#Cc1ccc(Cl)cc1NC(=O)CNCc1cccs1` ?
A: inactive

Q: Short answer needed: outcome of this test for `Cn1c(=O)n(C)c2cc3[nH]cnc3cc21` ?
A: inactive

Q: Short answer needed: outcome of this test for `O=C(O)CCC(=O)Nc1ccc(SSc2ccc(NC(=O)CCC(=O)O)cc2)cc1` ?
A: inactive

Q: Short answer needed: outcome of this test for Cc1cc2cc(C(c3nnnn3CC3CCCO3)N3CCCc4ccccc43)c(=O)[nH]c2cc1C (stereo not given) ?
A: inactive

---

# tgt: Menin (Homo sapiens)
# protocolDescription: Confirmation of Inhibitors Targeting the Menin-MLL Interaction in MLL Related Leukemias: Confirmation in an HTRF (commercial TR-FRET) Assay using His-tagged menin and biotin-labeled MLL peptide
# experimentalParameters: His-menin / biotin-MLL peptide binding; series mostly up to 126 µM
Results filed as inconclusive are left out. Calls of active or inactive are those of the source. The call rests on the fitted dose curve; in most records, active means well fitted inhibition curve with a large enough effect; inconclusive means small, poorly fitted or top-dose-only effect, or effect the other way; inactive means flat fitted curve, though single readings scatter.
Reply using exactly one outcome from active, inactive

• O=C1NC(=S)N/C1=C/c1ccc2ccccc2c1 = inactive
• O=[N+]([O-])c1ccc(S(=O)(=O)c2ccccc2)nc1 = inactive
• CC(=O)c1c(O)cc(O)cc1CC(=O)O = inactive
• Cc1cc2c(c(=O)n1Cc1ccccc1)C1O[C@](c3ccsc3)(Cc3cc(C#N)ccc31)O2 = inactive
• CCOC(=O)c1cnc2ccc(OC)cc2c1Nc1ccc(N2CCN(C)CC2)cc1 = inactive

Q: Short answer needed: outcome of this test for COCCNC(=O)C(OC(=O)c1nsc(Cl)c1Cl)C(C)C (stereo not drawn) ?
A: inactive

Q: Short answer needed: outcome of this test for CC1CCCCN1S(=O)(=O)c1ccc(C(=O)Nc2ccccc2-c2nc3ccccc3[nH]2)cc1 (stereo not drawn) ?
A: inactive

Q: Short answer needed: outcome of this test for O=C(Nc1nccs1)C(Br)C(Br)c1ccccc1 (stereo not drawn) ?
A: inactive

Q: Short answer needed: outcome of this test for `O=C1C(SCCO)=C(SCCO)C(=O)c2ccccc21` ?
A: active

Q: Short answer needed: outcome of this test for CCCCCC1CCC(C(=O)NCCN2CCOCC2)CC1 (stereo not drawn) ?
A: inactive

Q: Short answer needed: outcome of this test for C=C1CCC[C@]2(C)C[C@H]3OC(=O)C(CNCCN(CC)CC)[C@H]3CC12 (stereo partly drawn) ?
A: inactive

Q: Short answer needed: outcome of this test for `CC(=O)c1ccc2c(c1)N(CCCN1CCC(CCO)CC1)c1ccccc1S2` ?
A: inactive

Q: Short answer needed: outcome of this test for `O=C(Nc1nnc(SCc2ccc(F)cc2)s1)c1ccc2c(c1)C(=O)N(c1ccccc1Cl)C2=O` ?
A: inactive
